Each recorded value in this set is attributed to PubChem BioAssay AID624256.

- EXPERIMENTAL DETAILS: HoxA9-arrested leukemia cell differentiation promoters – flow cytometry, MLPCN library, primary screen (AID 624256);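 note: cells exposed to compound for four days before flow analysis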
- ASSAY SETUP: ER-HoxA9 myeloid progenitors, lysozyme-GFP differentiation, at 10 µM; measured here: differentiation confirmed by MAC1 staining, stronger effect = higher value
The campaign covered roughly 360,000 compounds. About 3,700 (1%) were called active. Inconclusive results (about 2%) are left out. For the sample, actives were picked, then their nearest neighbours and some compounds at random.
Documented GFP+ MAC1+ double positive across a set of molecules

>  <MOLECULE>
CCc1noc(C)c1C(=O)OCC(=O)c1ccc(NC(=O)CC(C)C)cc1

>  <GFP+ MAC1+ double positive / %>
1.1

$$$$
>  <MOLECULE>
CCc1nc2ccc(C(=O)NC3CCN(Cc4ccccc4)CC3)cn2c1N(C)CCN1CCOCC1

>  <GFP+ MAC1+ double positive / %>
1.3

$$$$
>  <MOLECULE>
Cc1ccc(-c2csc(NC(=O)C3=COCCO3)n2)cc1C

>  <GFP+ MAC1+ double positive / %>
0

$$$$
>  <MOLECULE>
CSCCC(c1nnnn1Cc1ccccc1)N1CCN(C/C=C/c2ccccc2)CC1 (stereo not given)

>  <GFP+ MAC1+ double positive / %>
1.1

$$$$
>  <MOLECULE>
CCOC(=O)C1=CCC(c2ccc(F)cc2)N(S(=O)(=O)c2ccc(C)cc2)C1 (stereo not given)

>  <GFP+ MAC1+ double positive / %>
0.9

$$$$
